test: splicing luciferase reporter signal modulators, primary screen, spliceosome inhibition project, cell-based, HEK293, splice +/- reporter (AID 1101);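 note: HEK293 cells carrying a splicing-competent luciferase reporter gene; test concentration not given here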
measurement.conditions: luminescence, 24 h, higher = more signal, called active from +8 up or from −8 down
Activity calls are given as the source filed them.
readout.type: z-score

These solved cases illustrate the format of a correct answer.
compound	z-score
O=C1OCCC=C[C@H]2OC34C=CCN(Cc5ccccc5)C(=O)[C@H]3N(CCCO)C(=O)[C@@H]4C12 (some centres not stated)	-1.74 (inactive)
CC(=O)C1=CCC(c2ccccc2)N(S(=O)(=O)c2ccc(C)cc2)C1 (configuration not stated)	0.0149 (inactive)
CCOC(=O)C[C@H]1[C@H](OC(=O)Cc2ccc3c(c2)OCO3)[C@@H](NC(=O)C2CCCCC2)c2cc(OCCCO)ccc2N1C(=O)Cc1ccc(OC)cc1	-1.6 (inactive)
COC(=O)[C@@]1(Cc2ccccc2)[C@H]2c3cc(C(=O)N(C)C)n(Cc4cc(C)n(C)n4)c3C[C@H]2CN1C(=O)c1ccccc1	-1.26 (inactive)
CCCN1C(=O)[C@@]2(CCC(=O)OC(C)(C)C)N=C(c3ccc(OCCCO)cc3)O[C@H]2c2ccccc21	0.478 (inactive)

Notebook: `NC(=O)NCC#Cc1ccc2c(c1)[C@]1(C(=O)N2)[C@H](C(=O)N2CCCCCCC2)[C@H]2C(=O)O[C@H](c3ccccc3)[C@H](c3ccccc3)N2[C@@H]1c1ccc(OCCO)cc1` , z-score read as -0.144 (inactive)

Notebook: `C=CCNC(=O)[C@@H]1[C@H]2C(=O)O[C@H](c3ccccc3)[C@H](c3ccccc3)N2[C@H](c2ccc(OCCO)cc2)[C@@]12C(=O)Nc1ccccc12` , z-score read as -0.0935 (inactive)

---

study.target: Concanavalin-A (Canavalia ensiformis) (UniProt P02866)
Sequence (P02866 whole entry, looked up): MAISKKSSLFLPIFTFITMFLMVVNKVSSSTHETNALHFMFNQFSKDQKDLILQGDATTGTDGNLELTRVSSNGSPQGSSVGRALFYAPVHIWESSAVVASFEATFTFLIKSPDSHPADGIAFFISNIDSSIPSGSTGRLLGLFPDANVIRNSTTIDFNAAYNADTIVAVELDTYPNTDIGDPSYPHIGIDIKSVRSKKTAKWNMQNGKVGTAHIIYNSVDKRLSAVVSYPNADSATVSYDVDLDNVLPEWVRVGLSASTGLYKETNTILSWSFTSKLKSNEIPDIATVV
test: ConA small-molecule binders, primary screen, artefact control for SMM control protein annotation, biochemical, small-molecule microarray, Alexa647 label, 635 nm (AID 1127);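 note: z combines 667 nm emission intensity with signal-to-noise across three replicate slides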
measurement.conditions: ConA-A647 binding fluorescence, higher = more signal
Please mark 1.0 if the recorded composite z-score is equal to or greater than 1, and 0.0 if it falls below.

The following molecules have reported results that may help.
molecule	group
CCOC(=O)C1=CCC(c2ccc([N+](=O)[O-])cc2)N(S(=O)(=O)c2ccc(C)cc2)C1 (centres undefined)	0.0
COc1cc(C(O)C2C=CC3C(=O)N(c4ccccc4)C(=O)C3N2Nc2ccc(C#N)cc2)cc(OC)c1OC (centres undefined)	1.0
COC(=O)[C@@]1(Cc2ccc(OC)cc2)[C@H]2c3cc(C(=O)N4CCCC4)n(Cc4cc(F)cc5c4OCOC5)c3C[C@H]2CN1C(=O)c1ccccc1	0.0

Say whether `C=CCNC(=O)[C@@H]1[C@H]2C(=O)O[C@H](c3ccccc3)[C@H](c3ccccc3)N2[C@H](c2ccc(O)cc2)[C@@]12C(=O)N(C(=O)OCCOC)c1ccccc12` shows composite z-score of 1 or more.
0.0

Say whether `C[N+](C)(C)CCCCCCNC(=O)[C@H]1C[C@H]2C(=O)N3CCC[C@H]3C(=O)N2[C@H]1c1ccc(O)cc1` shows composite z-score of 1 or more.
0.0

Say whether `CO[C@H]1O[C@H](CO)[C@@H](OC(=O)Nc2ccc3c(c2)OCO3)[C@H](OC(=O)Nc2ccccc2)[C@H]1OC(=O)Nc1ccccc1` shows composite z-score of 1 or more.
0.0
